Overview of recorded Blocking % for various binders
Molecular target: T1, human IL-17A (human, UniProt Q16552 20-155, limits assumed)
T1 construct: Bought from R&D Systems; also called IL-17 antigen (human IL17A)
T1 sequence (looked up): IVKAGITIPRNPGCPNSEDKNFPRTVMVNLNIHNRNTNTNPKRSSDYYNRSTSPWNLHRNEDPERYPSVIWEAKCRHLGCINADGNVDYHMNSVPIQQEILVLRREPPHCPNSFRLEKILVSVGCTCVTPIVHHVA
Experiment: blocking ELISA, IL-17RA coated; antibody 1 ug/ml pre-mixed with human IL-17A 0.1 ug/ml; bound IL-17A detected
Note: unit % is implicit; provide only the numeric part.

binder	recorded_metric	numeric_readout
PP10767 (antibody, human IgG4 S228P, kappa, V domains shown, Humanized, human IgG4/kappa; also called VH6667/VL6666) VH: EVQLVESGGGVVQPGRSLRLSCAASGFTFSTYGMSWVRQAPGKGLELVAIINHNGGSTFYPDSVKGRFTISRDNSKNTLYLQMNSLRAEDTAVYYCARDPRHDGYFFDYWGQGTLVTVSS VL: DIQMTQSPSSLSASVGDRVTITCQASEDIYDRLAWYQQKPGKAPKLLISGATSLETGVPSRFSGSGSGKDYTFTISSLQPEDIATYYCQQYWSVPWTFGGGTKVEIKR	Blocking %	98.1

Note: attention shifts to another entry.
For reference, reported Blocking % for PP10768 (antibody, human IgG4 S228P, kappa, V domains shown, Humanized, human IgG4/kappa; also called VH6667/VL6667) VH: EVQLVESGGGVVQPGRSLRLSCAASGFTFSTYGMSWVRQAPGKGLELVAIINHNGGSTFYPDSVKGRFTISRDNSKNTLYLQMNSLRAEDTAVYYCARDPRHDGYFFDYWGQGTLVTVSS VL: DIQMTQSPSSLSASVGDRVTITCRASEDIYDRLAWYQQKPGKAPNLLVSGATSLESGVPSRFSGSGSGKDYTLTISSLQPEDFATYYCQQYWSVPWTFGGGTKVEIKR stands at 99.5
